FYI, the data here is from PubChem BioAssay (NCI).

TGI listing for selected molecules.
Test system: MCF7 breast
procedure-summary: NCI tumour cell line growth inhibition, 48 h

Some molecules with recorded TGI:
[[record]]
molecule = "Cc1ccc2oc(=O)c(C(=O)Nc3nc(C45CC6CC(CC(C6)C4)C5)cs3)cc2c1"
test_readout = "TGI"
result = "> 100 µM"

[[record]]
molecule = "COc1nc(N)nc2c1ncn2C1OC(CO)C(O)C1O (stereo unspecified)"
test_readout = "TGI"
result = "> 5000 µM"

[[record]]
molecule = "FC1C2=C(SC1(F)F)C1CCC2C1 (stereo unspecified)"
test_readout = "TGI"
result = "> 100 µM"

[[record]]
molecule = "O=C(N/N=C1/C(=O)c2c3ccccc3cc3cccc1c23)c1ccccc1"
test_readout = "TGI"
result = "> 77.1 µM"

[[record]]
molecule = "CC/C=C(\\C(=C/CC)[N+](=O)[O-])[N+](=O)[O-]"
test_readout = "TGI"
result = "38.1 µM"

[[record]]
molecule = "Oc1ccc(Cl)cc1CN1CCN(Cc2cc(Cl)ccc2O)C1"
test_readout = "TGI"
result = "24.1 µM"

[[record]]
molecule = "O=C1/C(=C\\c2ccccn2)c2ccccc2N1c1c(Cl)cccc1Cl"
test_readout = "TGI"
result = "14.3 µM"

[[record]]
molecule = "Clc1ccc(C2Nc3ccccc3C3=NCCN32)cc1 (stereo unspecified)"
test_readout = "TGI"
result = "57.3 µM"


Quick one: TGI for Cc1cc(CC(C)CC(C)(C)C)n(O)c(=O)c1 (stereo unspecified) (tested in a mixture with another compound) ? > 43 µM

Quick one: TGI for `COc1ccc(OC)c(NS(=O)(=O)c2ccc3nc(C)n(NS(=O)(=O)c4cc(OC)ccc4OC)c(=O)c3c2)c1` ? > 100 µM

Quick one: TGI for `COc1ccc(C(=O)c2cc3c(N)c(C(=O)Nc4ccc(C)cc4)sc3nc2C)cc1` ? > 100 µM

###

System: MOLT-4 leukemia
procedure-summary: NCI tumour cell line growth inhibition, 48 h
test-readout: TGI (µM)
// return numeric value only (unit: µM, not printed)

Some compounds with recorded TGI:
[[record]]
compound = "Cc1ccc(N(CC(=O)Nc2ccc(S(=O)(=O)N3CCC(N4CCCC4)CC3)cc2)S(=O)(=O)c2ccc(Cl)cc2)cc1"
test_readout = "TGI"
readout_number = 4.98

[[record]]
compound = "C=C(OC1C(C)=C2C(C1OC(=O)CCCCCCC)C(C)(OC(C)=O)CC(OC(=O)CCC)C1(O)C2OC(=O)C1(C)O)/C(C)=C/C (stereo not drawn)"
test_readout = "TGI"
readout_number = 0.177

[[record]]
compound = "CCOC(=O)CNc1nc(=O)c2c(=O)oc(Cl)cc2o1"
test_readout = "TGI"
readout_number = 29.8

[[record]]
compound = "CC(C)(C)[Si](C)(C)OC1[C@@H](O[Si](C)(C)C(C)(C)C)[C@@H](CNC(=O)NC(=O)CCl)O[C@H]1n1cnc2c(NC(=O)Nc3ccccc3)ncnc21 (stereo partly drawn)"
test_readout = "TGI"
readout_number = 0.913

[[record]]
compound = "COc1cccc(C2c3cc4c(cc3OC(N3CCCC3)C2C)OCO4)c1O (stereo not drawn)"
test_readout = "TGI"
readout_number = 93

[[record]]
compound = "CC(=O)OC1CC2C(C)(C)C(=O)C=C[C@]2(C)C2CCC3(C)C(=CC(=O)C3c3ccoc3)[C@]12C (stereo partly drawn)"
test_readout = "TGI"
readout_number = 34


Quick one: TGI for `CCCCCCCCCCCCOCCCOP(=O)([O-])OCC[N+](C)(C)C` ? 65.1

Quick one: TGI for `CN(CCNCc1cn(C)c2c1ccc1ccccc12)CCNCc1cn(C)c2c1ccc1ccccc12` ? 2.81

###

System: TK-10 renal
procedure-summary: NCI tumour cell line growth inhibition, 48 h
TGI listing for selected compounds.

Quick one: TGI for `C=C(Nc1ccc([N+](=O)[O-])cc1[N+](=O)[O-])c1c/c(=N\NC(N)=S)c2ccccc2o1` ? > 100 µM

Quick one: TGI for `O=S(=O)(/N=C(\NO)Nc1ccc(Cl)cc1)c1cccc2nsnc12` ? > 100 µM

Quick one: TGI for `O=C(Cc1ccccc1)Nn1c(-c2ccccc2)nc2ccccc2c1=O` ? > 100 µM

Quick one: TGI for `COc1ccc(CN=C(N)N)c2ccccc12` ? > 100 µM

###

Tested on: UO-31 renal
procedure-summary: NCI tumour cell line growth inhibition, 48 h; in the data active = GI50 below about 0.43 µM; inactive = the rest
Pick from true (1) (active), false (0) (inactive) when you respond.

[[record]]
compound = "Nc1nc(N)c2cc(NCc3ccc(Cl)c(Cl)c3)ccc2n1"
class_name = "false (0)"

[[record]]
compound = "Cc1cc(N2CCSCC2)nc(NC2CCCC(Nc3ccnc4cc(Cl)ccc34)C2)n1 (centres undefined)"
class_name = "false (0)"

[[record]]
compound = "O=Cc1ccc(-c2ccc(-c3nc4ccccc4o3)cc2)o1"
class_name = "false (0)"


Per the records of this test, what outcome belongs to `COc1ccc2c(c1)CC[C@H](O)/C2=C/c1cc(OC)c(OC)c(OC)c1` ? true (1)

###

System: HT29 colon
procedure-summary: NCI tumour cell line growth inhibition, 48 h
TGI listing for selected molecules.

Some molecules with recorded TGI:
[[record]]
molecule = "O=C1c2cc(Cl)ccc2NC(=NCCCl)C2CSCN12 (configuration not stated)"
result = "> 100 µM"

[[record]]
molecule = "COc1ccc(N2C=Nn3c(nc4sc5c(c4c3=O)CCCC5)C2)cc1"
result = "> 100 µM"


Quick one: TGI for O=C1OC(O)C(Oc2c(Cl)cccc2Cl)=C1Cl (configuration not stated) ? 34.3 µM

Quick one: TGI for `CN(c1ccccc1Cl)S(=O)(=O)c1ccc([N+](=O)[O-])cc1` ? > 100 µM

Quick one: TGI for `CN(C)C(=O)OC(Cn1cncn1)(Cn1cncn1)c1ccc(Cl)cc1Cl` ? > 100 µM

###

TGI listing for selected molecules.
Tested on: SNB-75 CNS
procedure-summary: NCI tumour cell line growth inhibition, 48 h
// return numeric value only (unit: µM, not printed)

Some molecules with recorded TGI:
[[record]]
molecule = "Oc1ccc(Cl)cc1CN1CCN(Cc2cc(Cl)ccc2O)C1"
test_readout = "TGI"
readout_number = 7.59

[[record]]
molecule = "CCN(CC)CCNC(=O)c1cn2c(ccc3sc4ccccc4c(=O)c32)n1"
test_readout = "TGI"
readout_number = 32.6

[[record]]
molecule = "C=C(OC1C(C)=C2C(C1OC(=O)CCCCCCC)C(C)(OC(C)=O)CC(OC(=O)CCC)C1(O)C2OC(=O)C1(C)O)/C(C)=C/C (stereo unspecified)"
test_readout = "TGI"
readout_number = 1.61

[[record]]
molecule = "CCCCCCCCCCCCOCCCOP(=O)([O-])OCC[N+](C)(C)C"
test_readout = "TGI"
readout_number = 71.1

[[record]]
molecule = "COc1ccc(/C=N\\Nc2ccc([N+](=O)[O-])cn2)cc1OC"
test_readout = "TGI"
readout_number = 16.4

[[record]]
molecule = "O=[N+]([O-])C1Cc2ccccc2OC1c1ccccc1 (stereo unspecified)"
test_readout = "TGI"
readout_number = 55.5

[[record]]
molecule = "CC[N+]1(C)CCC(O)(c2ccc(OC)cc2)C(C(=O)c2ccc(OC)cc2)C1 (stereo unspecified)"
test_readout = "TGI"
readout_number = 27.8

[[record]]
molecule = "Cc1cc(N2CCSCC2)nc(NC2CCCC(Nc3ccnc4cc(Cl)ccc34)C2)n1 (stereo unspecified)"
test_readout = "TGI"
readout_number = 2.94


Quick one: TGI for CC(C)(C)C(=O)OC12/C(=N/O)CCCCCC1c1ccccc12 (stereo unspecified) ? 27.8

Quick one: TGI for CCOC(=O)C(Cc1cccn1C(=O)OC(C)(C)C)[N+](=O)[O-] (stereo unspecified) ? 54.9

Quick one: TGI for `COc1cc(Nc2nc3ccccc3cc2C(=O)Nc2ccc(F)c(F)c2)cc(OC)c1OC` ? 9.35

###

Test system: SNB-75 CNS
procedure-summary: NCI tumour cell line growth inhibition, 48 h
TGI listing for selected compounds.

[[record]]
compound = "COc1ccc(OC)c(NS(=O)(=O)c2ccc3nc(C)n(NS(=O)(=O)c4cc(OC)ccc4OC)c(=O)c3c2)c1"
test_readout = "TGI"
result = "> 100 µM"


Please examine the following record next.
// fetch SNB-75 CNS TGI for `SCCSCCCSCCS` > 100 µM

###

Tested on: ACHN renal
procedure-summary: NCI tumour cell line growth inhibition, 48 h
TGI listing for selected compounds.
// return numeric value only (unit: µM, not printed)

[[record]]
compound = "COc1ccc2cc(CN3CCC(C4CCNCC4)CC3)ccc2c1"
target = "ACHN renal"
readout_number = 11.9


Please examine the following record next.
// fetch ACHN renal TGI for CC1=C(C(=O)c2ccccc2)C23C(=O)N(c4ccccc4)C(=O)C2=C(O)C=CC3(O)N1 (stereo not given) 40.4

###

System: M14 melanoma
procedure-summary: NCI tumour cell line growth inhibition, 48 h
TGI listing for selected compounds.

Some compounds with recorded TGI:
[[record]]
compound = "COc1cc2c(=O)cnoc2cc1O"
result = "> 100 µM"

[[record]]
compound = "COC(=O)C1[C@H](c2cc(OC)c(OC)c(OC)c2)OC(=O)C1(C(=O)OC)C(=O)c1ccc2c(c1)OCO2 (some centres undefined)"
result = "> 100 µM"

[[record]]
compound = "FC(F)(F)c1cccc(-c2nc3ccccc3c3c2[C@@]2(N4CCCC4)CCCC[C@@H]32)c1"
result = "> 100 µM"

[[record]]
compound = "COc1ccc(C(=O)c2cc3c(N)c(C(=O)Nc4ccc(C)cc4)sc3nc2C)cc1"
result = "62.9 µM"

[[record]]
compound = "Nc1ccn(C2OC(COC(=O)C34CC5CC(CC(C5)C3)C4)C(O)C2O)c(=O)n1 (centres undefined)"
result = "> 100 µM"


Quick one: TGI for `N#Cc1c(-c2ccccc2)c(N=Nc2ccc(Cl)cc2)c(=O)n2c1[nH]c1ccccc12` ? > 100 µM

Quick one: TGI for `Cc1cc(S(=O)(=O)Nc2nc(N)nc(N(C)C)n2)c(SCC(=O)O)cc1Cl` ? > 10 µM

Quick one: TGI for COc1cc(CNC2c3cc4c(cc3C(c3cc(OC)c(OC)c(OC)c3)[C@H]3C(=O)OCC23)OCO4)cc(OC)c1OC (some centres undefined) ? > 100 µM

Quick one: TGI for `O=C(N/N=C(/COc1ccc([N+](=O)[O-])cc1)N=Cc1ccncc1)c1ccncc1` ? > 100 µM
